System: vancomycin-resistant enterococci (VRE)
Method notes: MIC, broth micro-dilution (CLSI)
Format: cell-based, enterococci (porcine isolates)
Test settings: Enterococcus, VRE, S3 Table isolates; absence of FBS
Assign MIC50 to each entry below.
Give just the number in µg/mL; leave the unit off.

// fetch MIC50 given entry CCCCCCCCCC(=O)N[C@@H](Cc1c[nH]c2ccccc12)C(=O)N[C@H](CC(N)=O)C(=O)N[C@@H](CC(=O)O)C(=O)N[C@@H]1C(=O)NCC(=O)N[C@@H](CCCN)C(=O)N[C@@H](CC(=O)O)C(=O)N[C@H](C)C(=O)N[C@@H](CC(=O)O)C(=O)NCC(=O)N[C@H](CO)C(=O)N[C@@H]([C@H](C)CC(=O)O)C(=O)N[C@@H](CC(=O)c2ccccc2N)C(=O)O[C@@H]1C [Daptomycin, daptomycin]
1

// fetch MIC50 given entry C/C(=N\NC(=N)N/N=C(\C)c1ccc(C(C)(C)C)cc1)c1ccc(C(C)(C)C)cc1 [NCL219]
2
